Tested on: Fibroblast
Assay: Multiplex assay against human fibroblast
Assay type: toxicity, cell-based
Settings: 24 h, 1 µM, compound concentration 1 uM, replicate 1
So basically: Population Fragmented Nuclei (%) at 20% or higher? That is true (1). Lower than 20%? That is false (0).

Check this compound for Population Fragmented Nuclei (%) at or above 20%: Cc1noc(-c2ccc(-c3ccc(CC(=O)O)cc3)cc2)c1NC(=O)O[C@H](C)c1ccccc1Cl
false (0)

Check this compound for Population Fragmented Nuclei (%) at or above 20%: O=C(CCCc1ccccc1)Nc1nc2ccccc2c(=O)s1
false (0)

Check this compound for Population Fragmented Nuclei (%) at or above 20%: CC(/C=C1\SC(=S)N(CCCC(=O)Nc2ccc(C(=O)O)c(O)c2)C1=O)=C\c1ccccc1
false (0)

Check this compound for Population Fragmented Nuclei (%) at or above 20%: CC(C)COc1ccc(CNC(=O)N(Cc2ccc(F)cc2)C2CCN(C)CC2)cc1
true (1)

---

System: HEK-293T
Assay: Multiplex assay against HEK293T
Type: toxicity, cell-based
Conditions: human, 48 h, 10 µM, compound concentration 10 uM, replicate 2
Assign Population Mitochondria Different-Phenotype (%) to each entry below.

Return reported Population Mitochondria Different-Phenotype (%); argument: N#Cc1c(Oc2cccc(OS(=O)(=O)CCCC(F)(F)F)c2)cccc1C(F)(F)F
47%

Return reported Population Mitochondria Different-Phenotype (%); argument: CC(C)(C)c1cc(NC(=O)Nc2ccc(-c3cn4c(n3)sc3cc(OCCN5CCOCC5)ccc34)cc2)no1
59%

Return reported Population Mitochondria Different-Phenotype (%); argument: CCCCC1=NC2(CCCC2)C(=O)N1Cc1ccc(-c2ccccc2-c2nnn[nH]2)cc1
26%

Return reported Population Mitochondria Different-Phenotype (%); argument: CC(C)c1noc(N2CCC(COc3ccc(-c4ccc(S(C)(=O)=O)cc4)nc3)CC2)n1
37%

Return reported Population Mitochondria Different-Phenotype (%); argument: COc1ccccc1N1CCN(C[C@@H](C(=O)NC(C)(C)C)c2ccccc2)CC1.Cl.Cl
58%

Return reported Population Mitochondria Different-Phenotype (%); argument: COC[C@@H](c1ccc(C(F)(F)F)cc1)N1CCN(C2(C)CCN(C(=O)c3c(C)ncnc3C)CC2)C[C@@H]1C.O=C(O)/C=C\C(=O)O [VICRIVIROC MALEATE]
50%

Return reported Population Mitochondria Different-Phenotype (%); argument: CC[C@@H](C)Nc1nc(C)nc2c(-c3ccc(OC)nc3C)c(C)nn12
53%

Return reported Population Mitochondria Different-Phenotype (%); argument: NCCc1cn(S(=O)(=O)c2c(Cl)nc3sccn23)c2ccccc12.O=C(O)C(=O)O
75%

Return reported Population Mitochondria Different-Phenotype (%); argument: Cc1sc2c(c1C)C(c1ccc(Cl)cc1)=N[C@@H](CC(=O)NCCCCCCCCNC(=O)COc1cccc3c1C(=O)N(C1CCC(=O)NC1=O)C3=O)c1nnc(C)n1-2 (stereo partly drawn)
76%

Return reported Population Mitochondria Different-Phenotype (%); argument: O=C(NCCN1CCC(n2c(=O)[nH]c3cc(Cl)ccc32)CC1)c1ccc(F)cc1 [HALOPEMIDE]
64%

Return reported Population Mitochondria Different-Phenotype (%); argument: CN(C)C(=O)Cn1cc(-c2ccc(-c3cncc4ccccc34)cc2)cn1
43%

Return reported Population Mitochondria Different-Phenotype (%); argument: CC(/C=C1\SC(=S)N(CCCC(=O)Nc2ccc(C(=O)O)c(O)c2)C1=O)=C\c1ccccc1
23%

Return reported Population Mitochondria Different-Phenotype (%); argument: O=C1[C@H](Cc2ccc(O)cc2)N2C(=O)CCN(C(=O)NCc3ccccc3)[C@H]2CN1Cc1cccc2ccccc12
88%

Return reported Population Mitochondria Different-Phenotype (%); argument: Cl.NCCc1ccc(O)c(O)c1 [DOPAMINE HYDROCHLORIDE]
17%

Return reported Population Mitochondria Different-Phenotype (%); argument: CCc1cc2cc(NS(=O)(=O)c3ccc(C#N)cc3)ccc2n(CC)c1=O
40%

Return reported Population Mitochondria Different-Phenotype (%); argument: CCCOc1ccc2[nH]cc(C3=CCNCC3)c2n1.Cl
37%

Return reported Population Mitochondria Different-Phenotype (%); argument: C[C@H](N)COC(=O)[C@@H](CCCCN)NC(=O)Cc1c(-c2ccc3ccccc3c2)[nH]c2c1ccc1ccccc12
43%

Return reported Population Mitochondria Different-Phenotype (%); argument: Cl.N=C(N)NC(=O)Cc1c(Cl)cccc1Cl [GUANFACINE HYDROCHLORIDE]
33%
